Tested on: Adeno-carcinoma
Experiment description: Cytotoxic activity in different tumour models
Format: cell-based, human
Details: Number 5
Where a name gives a salt, the structure may show the parent alone.
Recorded metric: Median response at 4.0 µM >50% reduction in tumour cell survival

CCOC(=O)[C@H](Cc1ccc(F)cc1)NC(=O)[C@H](Cc1cccc(N(CCCl)CCCl)c1)NC(=O)[C@@H]1CCCN1 [Example P2, hydrochloride, reference compound] | No
CCOC(=O)[C@H](Cc1ccc(F)cc1)NC(=O)[C@H](Cc1ccc(N(CCCl)CCCl)cc1)NC(=O)[C@@H]1CCCN1.Cl | Yes
CCOC(=O)[C@H](Cc1ccc(F)cc1)NC(=O)[C@@H](N)Cc1ccc(N(CCCl)CCCl)cc1.Cl | Yes
CC(C)OC(=O)[C@H](Cc1ccc(F)cc1)NC(=O)[C@@H](N)Cc1ccc(N(CCCl)CCCl)cc1.Cl | Yes

* * *

Would you mind telling me the reported pIC50 of each entry?
Tested on: CEM/R
Experiment description: cells
Type: cell-based, human
Details: Homo sapiens, 72 h
Answers are plain numbers, as −log10 of the molar value.

Would you please look over these solved cases?
CC[C@]1(O)C[C@H]2CN(CCc3c([nH]c4ccccc34)[C@@](C(=O)OC)(c3cc4c(cc3OC)N(C=O)[C@H]3[C@@](O)(C(=O)OC)[C@H](OC(C)=O)[C@]5(CC)C=CCN6CC[C@]43[C@@H]65)C2)C1 [Vincristine, vincristine, reference compound] | 8.00
CC[C@@]1(O)C(=O)OCc2c1cc1n(c2=O)Cc2cc3c(CN(C)C)c(O)ccc3nc2-1 [Topotecan, topotecan, reference compound] | 7.70

Proceeding to the next molecule to report its pIC50.
Asked: Fill in reported pIC50 for this entry: COc1cccc2c1C(=O)c1c(O)c3c(c(O)c1C2=O)C[C@@](O)(C(=O)CO)C[C@@H]3O[C@H]1C[C@H](N)[C@H](O)[C@H](C)O1 [Doxorubicin, doxorubicin]
Given back: 5.88

* * *

System: H69
Experiment description: cells
Format: cell-based, human
Details: H69, small cell lung cancer; 72 hours incubation; read-out: IC50
Where a name gives a salt, the structure may show the parent alone.
Would you mind telling me the reported pIC50 of each entry?
Give bare numbers, as −log10 of the molar value.

Would you please look over these solved cases?
CCOC(=O)[C@H](Cc1ccc(F)cc1)NC(=O)[C@H](Cc1ccc(N(CCCl)CCCl)cc1)NC(=O)[C@@H]1CCCN1.Cl [Example J3, hydrochloride] | 6.70
CC(C)OC(=O)[C@H](Cc1ccc(F)cc1)NC(=O)[C@@H](N)Cc1ccc(N(CCCl)CCCl)cc1.Cl [JV28, hydrochloride] | 7.30
CCOC(=O)[C@H](Cc1ccc(F)cc1)NC(=O)[C@@H](N)Cc1ccc(N(CCCl)CCCl)cc1.Cl [Example J1, hydrochloride] | 7.40
CCOC(=O)[C@H](Cc1ccc(N(CCCl)CCCl)cc1)NC(=O)[C@@H](N)Cc1ccc(N(CCCl)CCCl)cc1 [JV27, hydrochloride] | 6.54

Proceeding to the next compound to report its pIC50.
Asked: Fill in reported pIC50 for this entry: CCOC(=O)[C@H](Cc1ccc(F)cc1)NC(=O)[C@H](Cc1cccc(N(CCCl)CCCl)c1)NC(=O)[C@@H]1CCCN1 [Example P2, hydrochloride, reference compound]
Given back: 5.34
